Catalogue of t1/2 values
TEST_DESCRIPTION: Half life in C57BL/6 mouse at 10 mg/kg, po measured upto 24 hrs by LC-MS/MS analysis
Assay type: ADME, organism-based
EXPERIMENTAL_SETUP: in vivo
# value in h; strip the unit string

* Cc1ccccc1-c1nc2c(N)ncn(Cc3c(Cl)cccc3Cl)c-2n1 | 1.35

Query: State the recorded t1/2 for this entry: `Cc1ccccc1-c1nc2c(N)ncn(Cc3c(Cl)cncc3Cl)c-2n1`
Response: 1.55

Query: Same for `Nc1ncn(Cc2c(Cl)cncc2Cl)c2ncnc1-2`
Response: 0.71

Query: Another compound to check: `Nc1ncn(Cc2c(Cl)cccc2Cl)c2ncnc1-2`
Response: 4.71

* * *

TARGET_DESC: Low molecular weight phosphotyrosine protein phosphatase (Homo sapiens, UniProt P24666)
Sequence (P24666 whole entry): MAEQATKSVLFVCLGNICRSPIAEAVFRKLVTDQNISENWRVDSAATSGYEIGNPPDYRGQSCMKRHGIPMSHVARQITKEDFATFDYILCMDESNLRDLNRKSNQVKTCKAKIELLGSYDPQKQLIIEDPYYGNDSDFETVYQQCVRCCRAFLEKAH
TEST_DESCRIPTION: Inhibition of recombinant human LMPTP-A using OMFP or pNPP as substrate by fluorescence assay
ENDPOINT_LABEL: pIC50
Reminder that pIC50 is minus the log10 of a molar concentration.

* Cc1ccccc1-c1nc2c(N)ncn(Cc3c(Cl)cccc3Cl)c-2n1 | 7.70
* Nc1ncn(Cc2c(Cl)cccc2Cl)c2nc(-c3cccc(F)c3)nc1-2 | 6.62
* N#Cc1ccccc1-c1nc2c(N)ncn(Cc3c(Cl)cccc3Cl)c-2n1 | 6.61

Query: Given the entry `Nc1ncn(Cc2c(Cl)cccc2Cl)c2nc(-c3ccc(Cl)cc3)nc1-2` , report its measured pIC50.
Response: 6.54

Query: Check `Nc1ncn(Cc2c(Cl)cccc2Cl)c2nc(Br)nc1-2` too.
Response: 4.75

Query: Subsequent entry: `Cc1nc2c(N)ncn(Cc3c(Cl)cccc3Cl)c-2n1`
Response: 6.51

Query: Now the compound `Cc1cccc(-c2nc3c(N)ncn(Cc4c(Cl)cccc4Cl)c-3n2)c1`
Response: 7.06

* * *

TARGET_DESC: Low molecular weight phosphotyrosine protein phosphatase (Homo sapiens)
Sequence (P24666 whole entry): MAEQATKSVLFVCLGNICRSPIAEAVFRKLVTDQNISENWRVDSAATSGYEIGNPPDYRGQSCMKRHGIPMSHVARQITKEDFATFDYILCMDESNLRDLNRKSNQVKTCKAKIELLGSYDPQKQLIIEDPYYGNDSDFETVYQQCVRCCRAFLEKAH
TEST_DESCRIPTION: Inhibition of recombinant human LMPTP-A using OMFP or pNPP as substrate by fluorescence assay
ENDPOINT_LABEL: pIC50
Reminder that pIC50 means the negative base-10 logarithm of the concentration expressed in mol/L.

See these solved cases before continuing.
- Nc1ncn(Cc2c(Cl)cccc2Cl)c2nc(-c3ccccc3)nc1-2: 6.98
- Cc1ccc(-c2nc3c(N)ncn(Cc4c(Cl)cccc4Cl)c-3n2)cc1: 6.92
- Nc1ncn(Cc2ccc(Cl)cc2)c2ncnc1-2: 4.71

Query: // map `COc1ccccc1-c1nc2c(N)ncn(Cc3c(Cl)cccc3Cl)c-2n1` to recorded pIC50 (system: Low molecular weight phosphotyrosine protein phosphatase (Homo sapiens))
Response: 6.97

Query: // query: `Nc1ncn(Cc2c(Cl)cccc2Cl)c2nc(Cl)nc1-2`
Response: 4.56

Query: Query `Nc1ncn(Cc2c(Cl)cncc2Cl)c2ncnc1-2` next
Response: 7.08

* * *

TEST_DESCRIPTION: Oral bioavailability in C57BL/6 mouse at 10 mg/kg measured upto 24 hrs by LC-MS/MS analysis
Format: ADME, organism-based
EXPERIMENTAL_SETUP: in vivo
ENDPOINT_LABEL: F (%)
Give the value in % but do not write % after it.

Query: Return reported F; argument: `Cc1ccccc1-c1nc2c(N)ncn(Cc3c(Cl)cncc3Cl)c-2n1`
Response: 3

Query: What do you have for `Nc1ncn(Cc2c(Cl)cccc2Cl)c2ncnc1-2` ?
Response: 66

Query: Same thing, different compound: `Cc1ccccc1-c1nc2c(N)ncn(Cc3c(Cl)cccc3Cl)c-2n1`
Response: 19

Query: `Nc1ncn(Cc2c(Cl)cncc2Cl)c2ncnc1-2` ?
Response: 100

* * *

TEST_DESCRIPTION: Microsomal stability in mouse liver microsomes assessed as parent compound remaining measured after 1 hr
Assay type: ADME, Microsome
EXPERIMENTAL_SETUP: read-out: Stabilty
ENDPOINT_LABEL: remaining at 1 h

Query: Dear colleague, I am looking for the recorded remaining at 1 h of the following compound: `Nc1ncn(Cc2c(Cl)cncc2Cl)c2ncnc1-2`
Response: > 90%

* * *

Vd values for the molecules below.
TEST_DESCRIPTION: Volume of distribution in C57BL/6 mouse at 2 mg/kg, iv measured upto 24 hrs by LC-MS/MS analysis
Type: ADME, organism-based
EXPERIMENTAL_SETUP: in vivo
Write the answer as a number in L/kg, unit excluded.

Query: Would you mind telling me what Vd value was observed for `Nc1ncn(Cc2c(Cl)cncc2Cl)c2ncnc1-2` ?
Response: 0.81

Query: Okay, and `Cc1ccccc1-c1nc2c(N)ncn(Cc3c(Cl)cncc3Cl)c-2n1` ?
Response: 4.04

Query: How about this molecule: `Nc1ncn(Cc2c(Cl)cccc2Cl)c2ncnc1-2`
Response: 3.01

Query: `Cc1ccccc1-c1nc2c(N)ncn(Cc3c(Cl)cccc3Cl)c-2n1` , same question.
Response: 2.75

* * *

TEST_DESCRIPTION: AUC in C57BL/6 mouse at 10 mg/kg, po measured upto 24 hrs by LC-MS/MS analysis
Format: ADME, organism-based
Design: route oral, dose 10 mg/kg, time <=24
EXPERIMENTAL_SETUP: in vivo
ENDPOINT_LABEL: AUC

Some molecules with known AUC results, for comparison:
- Nc1ncn(Cc2c(Cl)cccc2Cl)c2ncnc1-2: 18544 ng·h/mL
- Nc1ncn(Cc2c(Cl)cncc2Cl)c2ncnc1-2: 9501 ng·h/mL
- Cc1ccccc1-c1nc2c(N)ncn(Cc3c(Cl)cccc3Cl)c-2n1: 312 ng·h/mL

Now for another entry.
Query: Entry under review: `Cc1ccccc1-c1nc2c(N)ncn(Cc3c(Cl)cncc3Cl)c-2n1` . Reported AUC?
Response: 38 ng·h/mL

* * *

TEST_DESCRIPTION: Cmax in C57BL/6 mouse at 10 mg/kg, po measured upto 24 hrs by LC-MS/MS analysis
Type: ADME, organism-based
Set-up: route oral, dose 10 mg/kg, time <=24
EXPERIMENTAL_SETUP: in vivo
Cmax values for the compounds below.

Consider the following illustrative entries.
• Cc1ccccc1-c1nc2c(N)ncn(Cc3c(Cl)cccc3Cl)c-2n1 = 134 ng/mL
• Cc1ccccc1-c1nc2c(N)ncn(Cc3c(Cl)cncc3Cl)c-2n1 = 17 ng/mL
• Nc1ncn(Cc2c(Cl)cncc2Cl)c2ncnc1-2 = 8220 ng/mL

Query: State the recorded Cmax for this entry: `Nc1ncn(Cc2c(Cl)cccc2Cl)c2ncnc1-2`
Response: 5018 ng/mL

* * *

TEST_DESCRIPTION: Microsomal stability in human liver microsomes assessed as parent compound remaining measured after 1 hr
Format: ADME, Microsome
EXPERIMENTAL_SETUP: read-out: Stabilty
ENDPOINT_LABEL: remaining at 1 h

Query: I'd like to know its remaining at 1 h. The compound in question is `Nc1ncn(Cc2c(Cl)cncc2Cl)c2ncnc1-2`
Response: > 90%

* * *

TARGET_DESC: Low molecular weight phosphotyrosine protein phosphatase (Homo sapiens)
Sequence (P24666 whole entry): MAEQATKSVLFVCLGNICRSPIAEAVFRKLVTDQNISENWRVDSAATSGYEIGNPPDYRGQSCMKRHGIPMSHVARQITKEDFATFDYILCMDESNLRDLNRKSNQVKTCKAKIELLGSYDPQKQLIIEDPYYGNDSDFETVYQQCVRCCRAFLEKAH
TEST_DESCRIPTION: Inhibition of recombinant human LMPTP-A using OMFP or pNPP as substrate by fluorescence assay
We begin with a simple list: items and their reported IC50.
Express your answer in nM, writing the number without its unit.

The following compounds have reported results that may help.
* Nc1ncn(Cc2c(Cl)cccc2Cl)c2nc(-c3ccc(F)cc3)nc1-2 | 117
* Nc1ncn(Cc2c(Cl)cccc2Cl)c2nc(-c3cccc(Cl)c3)nc1-2 | 380
* Cc1cccc(C)c1Cn1cnc(N)c2ncnc1-2 | 3430
* Nc1ncn(Cc2c(Cl)cccc2Cl)c2ncnc1-2 | 239
* Nc1ncn(Cc2ccccc2)c2ncnc1-2 [3-BENZYLADENINE] | 13600

Attention now turns to another entry.
Query: API: value(readout= IC50, system= Low molecular weight phosphotyrosine protein phosphatase (Homo sapiens), query= `Nc1ncn(Cc2ccccc2Cl)c2ncnc1-2` )
Response: 1930
